- System Under Test: wild type PRC2 (wtPRC2) complex (Homo sapiens (Human))
- Measurement Notes: EED LC-MS assay
- Type: biochemical
- Settings: EED LC-MS Qualified assay; read-out: (b) IC50
# pIC50 annotations
Scale note: pIC50 = -log10(concentration in M).

[in] Please give the measured pIC50 for this compound: Cc1cn(-c2cnc(NCc3c(F)ccc4c3CCO4)n3cncc23)cn1 [Example 62]
[out] 8.18

[in] Consider the compound CCOC(=O)c1ncn2c(NCc3cc(OC)c(F)cc3F)ncc(-c3cccnc3C)c12 [Example 96] and give its measured pIC50.
[out] 7.77

###

- System Under Test: wild type PRC2 (wtPRC2) complex (Homo sapiens (Human), UniProt O75530)
- Sequence (O75530 whole entry): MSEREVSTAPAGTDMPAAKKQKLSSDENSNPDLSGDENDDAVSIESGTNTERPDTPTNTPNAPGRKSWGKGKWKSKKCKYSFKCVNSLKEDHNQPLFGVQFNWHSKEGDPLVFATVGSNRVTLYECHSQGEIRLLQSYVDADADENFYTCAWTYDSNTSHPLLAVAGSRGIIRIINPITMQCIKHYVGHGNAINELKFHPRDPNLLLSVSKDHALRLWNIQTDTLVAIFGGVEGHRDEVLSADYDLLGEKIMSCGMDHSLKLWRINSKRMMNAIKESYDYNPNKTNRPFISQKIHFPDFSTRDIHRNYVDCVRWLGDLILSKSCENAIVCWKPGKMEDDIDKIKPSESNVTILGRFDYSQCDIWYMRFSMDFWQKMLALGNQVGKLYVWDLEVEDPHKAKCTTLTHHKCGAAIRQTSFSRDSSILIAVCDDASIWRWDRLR
- Sequence (Q15910 whole entry partner): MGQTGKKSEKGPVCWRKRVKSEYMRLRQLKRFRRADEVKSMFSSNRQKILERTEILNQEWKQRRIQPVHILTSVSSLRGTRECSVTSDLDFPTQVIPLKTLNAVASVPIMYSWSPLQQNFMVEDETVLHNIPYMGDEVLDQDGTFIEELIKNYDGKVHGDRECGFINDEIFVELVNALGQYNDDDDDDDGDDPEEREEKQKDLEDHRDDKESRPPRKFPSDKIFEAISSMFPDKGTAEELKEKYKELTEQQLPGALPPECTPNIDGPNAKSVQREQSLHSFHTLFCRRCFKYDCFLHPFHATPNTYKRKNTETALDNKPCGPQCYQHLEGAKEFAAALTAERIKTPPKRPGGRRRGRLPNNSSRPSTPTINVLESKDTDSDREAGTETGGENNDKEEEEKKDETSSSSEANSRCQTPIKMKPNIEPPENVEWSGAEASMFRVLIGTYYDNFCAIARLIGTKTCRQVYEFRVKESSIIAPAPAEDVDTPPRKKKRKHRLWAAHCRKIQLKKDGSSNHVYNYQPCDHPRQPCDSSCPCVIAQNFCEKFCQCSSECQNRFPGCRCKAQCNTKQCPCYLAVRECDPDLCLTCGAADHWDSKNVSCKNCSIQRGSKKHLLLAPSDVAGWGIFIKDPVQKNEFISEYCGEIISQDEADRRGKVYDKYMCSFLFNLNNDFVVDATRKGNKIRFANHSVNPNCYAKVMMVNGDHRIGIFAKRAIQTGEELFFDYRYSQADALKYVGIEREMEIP
- Sequence (Q15022 whole entry partner): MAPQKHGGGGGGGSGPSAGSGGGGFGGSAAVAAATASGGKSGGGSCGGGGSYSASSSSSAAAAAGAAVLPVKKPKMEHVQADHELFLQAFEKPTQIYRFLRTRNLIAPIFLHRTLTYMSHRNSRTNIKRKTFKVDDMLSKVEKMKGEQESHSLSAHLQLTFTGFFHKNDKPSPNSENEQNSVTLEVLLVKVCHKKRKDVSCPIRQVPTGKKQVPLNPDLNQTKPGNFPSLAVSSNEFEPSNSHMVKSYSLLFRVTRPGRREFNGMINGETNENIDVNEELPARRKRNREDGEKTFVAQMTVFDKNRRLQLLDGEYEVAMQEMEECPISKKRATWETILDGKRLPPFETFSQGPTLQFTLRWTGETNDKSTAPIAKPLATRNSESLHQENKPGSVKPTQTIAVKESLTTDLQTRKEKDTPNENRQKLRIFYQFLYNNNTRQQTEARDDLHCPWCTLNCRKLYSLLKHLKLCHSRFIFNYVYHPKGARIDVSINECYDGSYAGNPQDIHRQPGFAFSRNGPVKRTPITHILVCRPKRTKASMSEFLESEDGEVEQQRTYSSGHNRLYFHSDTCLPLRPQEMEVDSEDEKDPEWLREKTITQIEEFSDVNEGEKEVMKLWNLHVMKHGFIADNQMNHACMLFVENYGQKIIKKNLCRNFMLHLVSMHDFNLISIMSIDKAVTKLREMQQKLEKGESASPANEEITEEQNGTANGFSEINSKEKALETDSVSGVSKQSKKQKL
- Measurement Notes: EED LC-MS assay
- Format: biochemical
- Settings: EED LC-MS Qualified assay; read-out: (b) IC50
Property Label: IC50 (nM)
Dear colleague, please return just the value in nM, with no unit written.

Please review the following examples before continuing.
Compound: Cc1ncccc1-c1ncn2c(NCc3c(F)ccc4c3CCO4)ncc(-c3ccc(S(C)(=O)=O)cc3)c12 [Example 112]
System Under Test: wild type PRC2 (wtPRC2) complex (Homo sapiens (Human), UniProt O75530)
Result: 12.1
--
Compound: CC(C)S(=O)(=O)c1ccc(-c2cnc(NCc3c(F)ccc4c3CCO4)n3cncc23)cc1 [Example 30]
System Under Test: wild type PRC2 (wtPRC2) complex (Homo sapiens (Human), UniProt O75530)
Result: 11.1
--
Compound: CS(=O)(=O)c1ncn2c(NCc3c(F)ccc4c3CCO4)ncc(Br)c12 [Example 103]
System Under Test: wild type PRC2 (wtPRC2) complex (Homo sapiens (Human), UniProt O75530)
Result: 10
--
Compound: CS(=O)(=O)c1ccc(-c2cnc(NCc3c(F)ccc4c3CCO4)n3cncc23)cc1 [Example 19]
System Under Test: wild type PRC2 (wtPRC2) complex (Homo sapiens (Human), UniProt O75530)
Result: 10.4

Shift focus to the following entry.
[in] Form field: reported IC50 of Cc1cc(-c2cnc(NCc3c(F)ccc4c3CCO4)n3cnc(C#N)c23)n(C)n1 [Example 5]
[out] 8.9

Data provenance is patent US10676479B2.
